Known pIC50 of a selection of compounds
system: Prostate cancer cell line LNcaP; assay: Inhibitory activity on cancer cells, CellTiter-Glo viability, LNcaP; type: cell-based; conditions: Homo sapiens, 72 hours treatment
Notebook: values listed as pIC50 are -log10 of the concentration (mol/L).

Reference set, count: 5
O=[N+]([O-])c1cc(Cl)c2c(N3CCCCC3)ccnc2c1O    6.02
CCOC(=O)C1CCN(c2ccnc3c(O)c([N+](=O)[O-])cc(F)c23)CC1    5.82
O=[N+]([O-])c1cc(Cl)c2c(N3CCNCC3)ccnc2c1O    4.39
COC(=O)[C@@H]1CCCN1c1ccnc2c(O)c([N+](=O)[O-])ccc12    4.48
O=[N+]([O-])c1ccc2c(N3CCCC3)ccnc2c1O    4.45

Quick one: give measured pIC50 for O=[N+]([O-])c1ccc2cccnc2c1O
4.96

Identify measured pIC50 corresponding to Cc1cc2cccnc2c(O)c1[N+](=O)[O-]
5.22

For the compound O=[N+]([O-])c1ccc2c(Br)ccnc2c1O , give its measured pIC50 value.
5.41

Name the recorded pIC50 of the item O=[N+]([O-])c1ccc2c(C3CC3)ccnc2c1O in your answer.
5.78
